FYI, the data here is from the supplement of paper PMC10567573.

We begin with a simple list: items and their reported protein stability index.
B1: JUNB (parent)
chain: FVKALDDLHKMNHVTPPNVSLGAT

- Variants of: B1
- ASSAY_INFO: protein stability index of a GFP-peptide fusion (GPS, HEK-293T) (PSI 1-6); higher = more stable;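 further: lentivirally expressed fusions sorted by FACS into six bins by GFP to DsRed ratio, PSI derived from sequencing read proportions per bin multiplied by bin number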
- RUN_CONDITIONS: c terminus: a fixed tail appended

Use these answered entries as a reference point.
{"ENTRY_SEQUENCE": "FVKALDDLHKMNAVTPPNVSLGAT [H13A]", "REPORTED_MEASUREMENT": 1.92}
{"ENTRY_SEQUENCE": "FDKALDDLHKMNHVTPPNVSLGAT [V2D]", "REPORTED_MEASUREMENT": 4.22}
{"ENTRY_SEQUENCE": "FVKALDDLHKMNHHTPPNVSLGAT [V14H]", "REPORTED_MEASUREMENT": 1.78}
{"ENTRY_SEQUENCE": "FVKALDDLHKMNHVYPPNVSLGAT [T15Y]", "REPORTED_MEASUREMENT": 1.67}
{"ENTRY_SEQUENCE": "FVKALDDKHKMNHVTPPNVSLGAT [L8K]", "REPORTED_MEASUREMENT": 2.3}
{"ENTRY_SEQUENCE": "FVKALDDLHKMNRVTPPNVSLGAT [H13R]", "REPORTED_MEASUREMENT": 2.4}
{"ENTRY_SEQUENCE": "FVKALDDLHKMNHVTNPNVSLGAT [P16N]", "REPORTED_MEASUREMENT": 1.14}
{"ENTRY_SEQUENCE": "FVKALDDLHKMNNVTPPNVSLGAT [H13N]", "REPORTED_MEASUREMENT": 1.54}

Lookup result for FVKALDDLHKMNHVTHPNVSLGAT [P16H] ; measured protein stability index: 1.81

Looking up FVKALDDLHKMNHVTPPNVHLGAT [S20H] , I found its protein stability index recorded as 1.81

For record FVKALDYLHKMNHVTPPNVSLGAT [D7Y] the listed protein stability index is 2.2

Item: FVKALDDLHKMNHVHPPNVSLGAT [T15H] | protein stability index: 2.12

FVKALDDLHKMNHVTPGNVSLGAT [P17G] has a reported protein stability index of 1.56

Memo: FVKALDDLHKMNHMTPPNVSLGAT [V14M] , reported protein stability index: 1.51
